Cited source: ChEMBL document CHEMBL1147469

- Tested on: MCF7R
- ASSAY_TEXT: In vitro cytotoxic activity against growth of MDR phenotype human breast carcinoma cell line (MCF-7-R) after 72 hr
- Format: functional, cell-based
- ASSAY_CONTEXT: Homo sapiens, MCF7R, 72 h
pIC50: −log10 of the molar value.
MEASURED_METRIC: pIC50

SUBSTANCE_SMILES: COc1cccc(C(=O)O[C@H]2CCC(=O)N3C[C@@H](OC(=O)[C@H](O)[C@H](CC(C)C)NC(=O)OC(C)(C)C)C[C@H]23)c1
pIC50: < 4.70
//
SUBSTANCE_SMILES: CC(=O)O[C@H]1C(=O)[C@@]2(C)[C@H]([C@H](OC(=O)c3ccccc3)[C@]3(O)C[C@H](OC(=O)[C@H](O)[C@@H](NC(=O)c4ccccc4)c4ccccc4)C(C)=C1C3(C)C)[C@]1(OC(C)=O)CO[C@@H]1C[C@@H]2O
pIC50: 5.93

Okay, now this compound:
Name the reported pIC50 value associated with the compound `CC(C)C[C@@H]1NC(=O)OCCCc2cccc(c2)C(=O)O[C@H]2C=CC(=O)N3C[C@H](C[C@H]23)OC(=O)[C@@H]1O`
< 4.70
